Catalogue of molecules with associated growth
Test system: NCI/ADR-RES ovarian
Experiment: NCI-60 one-dose screen, 48 h (100 = growth as untreated, 0 = no growth, -100 = all killed)
Conditions: 10 µM unless noted
The panel holds about 83,000 compounds, 20% with a hit somewhere; the sample as a whole holds those more often. The source made the active and inactive calls. Rule for the calls: active = growth percent below 10; inactive = the rest.

molecule	growth
Cc1cc2c([nH]1)CSc1cc(S(=O)(=O)c3ccccc3)c(=O)[nH]c1-2	15.7% [100 µM] (inactive)
Oc1c(Cl)cc(Cl)c2ccc(Cn3cc(-c4cc(C(F)(F)F)cc(C(F)(F)F)c4)nn3)nc12	97.8% (inactive)
Cc1cc(=O)[nH]c2c(C#N)cnn12	102% (inactive)
O=C(O)[C@@H]1c2ccccc2-c2ccccc2[C@H]1C(=O)O	95.4% (inactive)
CCn1cc(C(=O)N/N=C/c2cccs2)c(=O)c2cc(F)c(N3CCNC(C)C3)c(F)c21 (stereo not given)	67.9% (inactive)

----------
Tested on: T-47D breast
Experiment: NCI-60 one-dose screen, 48 h
Conditions: 10 µM unless noted
This is part of a sample that, as a whole, favours compounds with a hit. Of some 83,000 tested, about 20% had one in any assay. The source made the active and inactive calls. The calls were made as follows: active = growth percent below 10; inactive = the rest.
Outcome codes: Yes = active, No = inactive

compound	category
C#Cc1ccc(NC(=O)c2ccc(/C=C/C(=O)c3nccn3C)cc2)cc1	Yes
CN(CCOc1ccc(C#N)cc1)CCOc1ccc(C#N)cc1	No
COc1ccc2[nH]cc(-c3nc(-c4cn(C)c5c(Cl)nccc45)cs3)c2c1	No
COc1ccc(C2c3sc4c(F)cccc4c3Oc3nc[nH]c(=O)c32)cc1 (stereo not given)	No
CN[C@]12CC3(C=CC(=O)C=C3)O[C@@]1(Cc1ccc(OC)cc1)N(C)C(=O)N2	No
O=C(Cn1cc(CN2C(=O)c3ccccc3S2(=O)=O)nn1)Nc1nc2ccccc2s1	No
OCc1cccc(-c2ccc3ncc(-c4nc(NC5CC5)ncc4F)n3c2)c1	Yes
O=C(/C=C/c1cccs1)c1ccc(Cl)nc1	No
CCOC(=O)c1cc2c(=O)oc3ccccc3c2oc1=O	No
COc1cc(-c2csc(NC(=O)c3cc(-n4cnc(C)c4)cc(C(F)(F)F)c3)n2)cc(OC)c1OC	No
CCN(CC)C(=S)SC(SC(=S)N(CC)CC)C(=O)c1nnn(-c2ccc([N+](=O)[O-])cc2)c1C	No
O=C(CCCCCCN1CC(=O)N2[C@H](c3cc(Br)cs3)c3[nH]c4ccccc4c3C[C@H]2C1=O)NO	No
O=C(Nc1ncc(Cc2ccc(Cl)c(C(F)(F)F)c2)s1)c1ccc2nnsc2c1	No
N#CC1C=CN(CC(N)=O)c2ccc3cccnc3c21 (stereo not given)	No
O=S(=O)(Nc1ccccc1)c1ccc(C2CC3(Cl)C(Cl)=C(Cl)C2(Cl)C3(Cl)Cl)cc1 (stereo not given)	No
Cc1ccc(-c2csc(NC(=O)CN3CCN(c4cc5c(cc4F)c(=O)c(C(=O)O)cn5C4CC4)CC3)n2)cc1	Yes
N=C(N)c1ccc(-c2ccc(-c3cc(Cl)cc(Cl)c3)o2)o1	Yes
CO[C@]12C=C/C(=C(/C(=O)OCc3cccnc3)C(=O)CCCCCCCC[C@@]3(OC)C=C/C(=C(/C(=O)OCc4cccnc4)C(=O)CCCCCCCC1)O3)O2	No
CC(C)(C)[Si](C)(C)O[C@H]1C(=O)C=CN2CC=C[C@@H]12	No
O=C1Nc2ccccc2/C1=C\c1nc(-c2ccccc2F)n2ccccc12	No

----------
Tested on: NCI-H322M lung
Assay: NCI-60 one-dose screen, 48 h (100 = growth as untreated, 0 = no growth, -100 = all killed)
Details: 10 µM unless noted
This is part of a sample that, as a whole, favours compounds with a hit. Of some 83,000 tested, about 20% had one in any assay.
Label Criterion met when growth is at or above 90%; otherwise label Criterion not met.

compound	category
Cc1cc(Cl)ccc1NC(=O)c1cc2ccccc2cc1O	Criterion not met
C=C(C)[C@@H]1CC[C@]2(C(=O)OC)CC[C@]3(C)[C@H](CC[C@@H]4[C@@]5(C)C/C(=C/NC(N)=S)C(=O)C(C)(C)[C@@H]5CC[C@]43C)[C@@H]12	Criterion met
C#CCOc1cccc(Nc2ncnc3ccc(NC(=O)CCl)cc23)c1	Criterion not met
CCOC(=O)c1cc(C(=O)c2cc(OC)c(OC)c(OC)c2)n2ccc(-c3ccncc3)cc12	Criterion met
O=Nc1c(-c2c(O)[nH]c3ncccc23)[nH]c2ccccc12	Criterion not met
COC(=O)c1cc(-c2ccccc2)[nH]c1N/N=C/c1c(Cl)cccc1Cl	Criterion not met
Cn1c(=O)c2[nH]c(N/N=C/c3ccccc3Br)nc2n(C)c1=O	Criterion met
Oc1ccc(CN2CCC(N3CCCCC3)CC2)c2cccnc12	Criterion not met
O=C(Nn1c2c(sc1=NCc1ccccc1)C(=O)c1ccccc1C2=O)c1cc2ccc1CCc1ccc(cc1)CC2	Criterion met
Cc1nc2c(=O)[nH]c(SCC(=O)Nc3cccc(F)c3)nc2[nH]c1=O	Criterion met
OCCNCCCOc1ccc2ncnc(Nc3ccc(Oc4cccc(C(F)(F)F)c4)c(Cl)c3)c2c1	Criterion not met
C=CCn1cc(-c2nc3ccccc3s2)c2cc(-c3ccc4c5c(cccc35)C(=O)N(N)C4=O)ccc21	Criterion met
O=C(O)CNC1=C(Cl)C(=O)c2ccccc2C1=O	Criterion met
O=C(Nc1cccnc1Nc1ccc(F)cc1)c1cn(Cc2cccc(Oc3ccccc3)c2)nn1	Criterion not met
Cc1ccc(-c2nc3nc(-c4ccccc4)nc(N4CCNCC4)c3o2)cc1	Criterion not met
CN(Cc1ccc(C(F)(F)F)cc1)CC(O)C(=O)Nc1ccc(Cl)cc1 (stereo not given)	Criterion not met
OCCCC1CCN(C(Cc2ccccc2)c2ccccc2)CC1 (stereo not given)	Criterion met
CCn1c(SCC(=O)c2ccc(Br)cc2)nnc1-c1ccncc1	Criterion met
CCn1c(=S)[nH]c2c(=O)n(C)c(=O)n(C)c21	Criterion met
Cc1ccc(C(C(N)=O)C(C(N)=O)c2ccccc2)cc1 (stereo not given)	Criterion met
Cn1cccc1C(=O)C1C(c2cccc([N+](=O)[O-])c2)C2C3CCCCC3CN2C12C(=O)Nc1ccc(Cl)cc12 (stereo not given)	Criterion not met
O=C1Nc2ccccc2[C@]12CC(c1ccccc1)=NN2	Criterion not met
C/C(Nc1ccc(Cl)c(Cl)c1)=C1\CCOC1=O	Criterion met
c1cnc2[nH]cc(-c3csc(-c4cn(CCCN5CCOCC5)c5ccccc45)n3)c2c1	Criterion not met
CCO/C=N/C1=C(C#N)C(c2ccc(OC)cc2)c2sc3c(F)cccc3c2O1 (stereo not given)	Criterion not met
COc1ccc(CC(C#N)c2cc3ccccc3[nH]2)cc1 (stereo not given)	Criterion met
N#Cc1c(-c2cccs2)cc(-c2cccnc2)[nH]c1=O	Criterion met
O=C(/C=C/c1cn(-c2ccccc2)nc1-c1ccc([N+](=O)[O-])cc1)c1ccc(Cl)cc1	Criterion not met
CS(=O)(=O)Nc1cc(-c2ccc3ncnc(Nc4c(Cl)ccc5c4OCO5)c3c2)cnc1Cl	Criterion not met
COC(=O)/C(CCC=C(C)C)=C1\[C@@H](OC(C)=O)C[C@@]2(C)[C@H]1C[C@@H](O)[C@H]1[C@@]3(C)CC[C@H](NCCN)[C@@H](C)[C@@H]3CC[C@@]12C	Criterion not met
O=C(Cc1ccccc1)Nc1nc(O)c(/C=C2\C(=O)C=Cc3ccccc32)s1	Criterion met
CCOC(=O)c1[nH]c(=O)c2c(C)nc(-c3ccccc3)cc2c1O	Criterion met
Nc1nc2c([nH]1)c1[nH]c3ccccc3c1c1[nH]c3ccccc3c21	Criterion not met
CC(=O)N1N=C(c2ccc(Nc3nc(Nc4ccc(Cl)cc4)nc(Nc4ccc(Cl)cc4)n3)cc2)CC1c1ccco1 (stereo not given)	Criterion met
OCCOCCN(Cc1ccccn1)Cc1cc(I)cc(I)c1O	Criterion not met
CCOc1nc(-c2ccccc2)cc2c(O)c(C(=O)NN)[nH]c(=O)c12	Criterion met
COc1ccc(C(=S)N2CCN(c3ccccc3Cl)CC2)cc1OC	Criterion not met

----------
System: K-562 leukemia
Experiment: NCI-60 one-dose screen, 48 h (100 = growth as untreated, 0 = no growth, -100 = all killed)
Conditions: 10 µM unless noted
This is part of a sample that, as a whole, favours compounds with a hit. Of some 83,000 tested, about 20% had one in any assay.
Short version: growth at least 30% is Y, less is N.

smiles_data	category
c1ccc(C2=NN[C@H](c3cn(-c4ccccc4)nc3-c3ccccc3)C2)cc1	Y
COC(=O)/C=C1/SC(=Nc2ccc(C)cc2)N(CCc2c[nH]c3ccc(O)cc23)C1=O	N
COc1ccc2[nH]cc(-c3nc(-c4cn(C)c5c(Cl)nccc45)cs3)c2c1	N
COc1ccc(-c2nc(/C=C3\SC(=NCc4ccccc4)NC3=O)c3ccccn23)cc1	N
O=C1Nc2ccc(Br)cc2/C1=N/c1n[nH]c(=S)s1	Y
Cc1nn(-c2ccccc2)c(Oc2ccccn2)c1-c1nc2ccccc2s1	Y
CCn1c(SCC(=O)c2ccc(Br)cc2)nnc1-c1ccncc1	Y
Cc1nc(N2CCOCC2)sc1S(N)(=O)=O	Y
CCOC(=O)C1=NN(c2ccccc2)C(=O)/C1=C\N1C(=O)CC(=O)NC1=S	Y

Hey, just so you know, these numbers are from PubChem BioAssay (NCI).
